Listed below: TGI values for each entry.
Test system: SK-MEL-2 melanoma
TEST_DETAILS: NCI tumour cell line growth inhibition, 48 h

A selection of reference data follows.
[
  {
    "COMPOUND": "CSc1n[nH]c2c1c(C)nn2-c1ccccc1",
    "TARGET_ENTITY": "SK-MEL-2 melanoma",
    "TGI": "> 100 µM"
  },
  {
    "COMPOUND": "C=CC(C)CCC(C/C=C(\\C)CCCC(C)C)C(=C)CCCC(C)C (stereo unspecified)",
    "TARGET_ENTITY": "SK-MEL-2 melanoma",
    "TGI": "> 100 µM"
  },
  {
    "COMPOUND": "C/C(=N\\NC(=O)C[n+]1ccccc1)c1sc(-c2nc(C)c(/C(C)=N/NC(=O)C[n+]3ccccc3)s2)nc1C",
    "TARGET_ENTITY": "SK-MEL-2 melanoma",
    "TGI": "> 100 µM"
  },
  {
    "COMPOUND": "OCC(O)C(O)C(O)c1nn[nH]n1 (stereo unspecified)",
    "TARGET_ENTITY": "SK-MEL-2 melanoma",
    "TGI": "> 100 µM"
  },
  {
    "COMPOUND": "O=C1C2=C(C(=O)c3c(O)ccc(O)c31)N(c1cccnc1)Cc1ccccc1O2",
    "TARGET_ENTITY": "SK-MEL-2 melanoma",
    "TGI": "4.78 µM"
  },
  {
    "COMPOUND": "C/C(=N\\NC(=O)c1cccc(S(=O)(=O)N2CCN(C)CC2)c1)c1cc(Cl)ccc1O",
    "TARGET_ENTITY": "SK-MEL-2 melanoma",
    "TGI": "> 72.6 µM"
  },
  {
    "COMPOUND": "[N-]=[N+]=CC(=O)OC1CCc2ccccc21 (stereo unspecified)",
    "TARGET_ENTITY": "SK-MEL-2 melanoma",
    "TGI": "> 100 µM"
  },
  {
    "COMPOUND": "COCn1c(=O)n(C)c(=O)c2c1nc1c(c(=O)n(C)c(=O)n1COC)[n+]2[O-]",
    "TARGET_ENTITY": "SK-MEL-2 melanoma",
    "TGI": "36.8 µM"
  },
  {
    "COMPOUND": "CC1(C)CCc2cc3c(cc2O1)OC(C)(C)CC3=O",
    "TARGET_ENTITY": "SK-MEL-2 melanoma",
    "TGI": "> 100 µM"
  },
  {
    "COMPOUND": "CCOC(=O)C1Nc2ccc([N+](=O)[O-])cc2[C@H]2OCC[C@@H]12 (stereo partly specified)",
    "TARGET_ENTITY": "SK-MEL-2 melanoma",
    "TGI": "> 100 µM"
  }
]

Now for another entry.
Exercise: Supply TGI value. Item: NCc1ccc(O)c(O)c1O
Key: 57.2 µM

The origin of these recorded values is PubChem BioAssay (NCI).
